# Measured Target: human adenosine A2A receptor (Homo sapiens)
# Construct: expressed in transfected cells; host or cells: HEK293 cells infected with BacMam
# Experimental Details: Inhibition binding assay, human adenosine A2A receptor membranes, [3H]ZM241385
# Condition Description: 1 nM [3H]ZM241385, HEK293-hA2A membranes, 25° C., 1 h; IC50 converted to Ki with Cheng-Prusoff; read-out: A2A pKi (converted)
Labelling: Ki reported below 6 nM becomes Met; at or above becomes Not met.

# Molecule, Discrete Label
data = [
    ("Cc1cc(-c2c(-c3ccccc3)nc(N)n3c(=O)n(Cc4ccc(F)cn4)nc23)cc(C)[n+]1[O-]", "Not met"),
    ("Cc1cc(-c2c(-c3ccccc3)nc(N)n3c(=O)n(CC4CCC(F)(F)C4)nc23)cc(C)n1 (centres unmarked)", "Met"),
    ("Cc1cc(-c2c(-c3ccc(F)cn3)nc(N)n3c(=O)n(CCC(F)(F)F)nc23)cc(C)n1", "Not met"),
    ("Cc1cc(-c2c(-c3ccccc3)nc(N)n3c(=O)n(CCC4CCN(C)CC4)nc23)cc(C)n1", "Not met"),
    ("Cc1cc(-c2c(-c3ccccc3)nc(N)n3c(=O)n(CC4CCCS(=O)(=O)C4)nc23)cc(C)n1 (single isomer, unassigned) [Example 2-89-iso-1]", "Not met"),
    ("Cc1cc(-c2c(-c3ccccc3)nc(N)n3c(=O)n(CC(CO)CO)nc23)cc(C)n1", "Not met"),
    ("Cc1cc(-c2c(-c3ccccc3)nc(N)n3c(=O)n(CCN(C)C4CCN(c5ccccc5)CC4)nc23)cc(C)n1", "Not met"),
    ("Cc1cc(-c2c(-c3ccccc3)nc(N)n3c(=O)n(C(CN)Cc4ccc(F)cc4F)nc23)cc(C)n1 (centres unmarked)", "Not met"),
    ("Cc1cc(-c2c(-c3ccccc3)nc(N)n3c(=O)n(Cc4cccnc4-n4cccn4)nc23)cc(C)n1", "Met"),
    ("[2H]c1c([2H])c([2H])c(-c2nc(N)n3c(=O)n(Cc4ccc(F)cn4)nc3c2-c2cc(C)nc(CO)c2)c([2H])c1[2H]", "Met"),
    ("Cc1cc(-c2c(-c3ccccc3)nc(N)n3c(=O)n(C[C@H]4CN(C)CCN4C)nc23)cc(C)n1", "Not met"),
    ("Cc1cc(-c2c(-c3ccccc3)nc(N)n3c(=O)n(CC4CCCOC4)nc23)cc(CO)n1 (single isomer, unassigned) [Example 2-92-iso-1]", "Met"),
    ("Cc1cc(-c2c(-c3ccccc3)nc(N)n3c(=O)n(CCNC(=O)OC(C)(C)C)nc23)cc(C)n1", "Not met"),
    ("Cc1cc(-c2c(-c3ccccc3)nc(N)n3c(=O)n(C4CCCN(C)C4)nc23)cc(C)n1 (centres unmarked)", "Met"),
]

---

# Measured Target: human adenosine A2A receptor (Homo sapiens, UniProt P29274)
# Construct: expressed in transfected cells; host or cells: HEK293 cells infected with BacMam
# Sequence (P29274 whole entry): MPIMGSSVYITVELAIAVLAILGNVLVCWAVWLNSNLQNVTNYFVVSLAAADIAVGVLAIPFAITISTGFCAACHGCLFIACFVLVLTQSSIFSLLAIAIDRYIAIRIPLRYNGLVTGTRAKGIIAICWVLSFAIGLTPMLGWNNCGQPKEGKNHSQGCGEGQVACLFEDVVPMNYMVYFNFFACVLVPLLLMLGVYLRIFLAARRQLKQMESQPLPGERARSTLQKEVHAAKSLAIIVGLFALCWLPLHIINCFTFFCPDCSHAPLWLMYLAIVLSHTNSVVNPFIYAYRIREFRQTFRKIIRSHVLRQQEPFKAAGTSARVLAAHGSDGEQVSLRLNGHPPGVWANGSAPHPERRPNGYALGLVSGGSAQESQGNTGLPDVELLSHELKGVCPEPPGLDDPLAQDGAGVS
# Experimental Details: Inhibition binding assay, human adenosine A2A receptor membranes, [3H]ZM241385
# Condition Description: 1 nM [3H]ZM241385, HEK293-hA2A membranes, 25° C., 1 h; IC50 converted to Ki with Cheng-Prusoff; read-out: A2A pKi (converted)
Measured Quantity: log10(Ki) (log10 of the value in nM)

# Compound, log10(Ki)
records = [
    ("COC(=O)c1ccc(CCn2nc3c(-c4cc(C)nc(C)c4)c(-c4ccccc4)nc(N)n3c2=O)cc1", 1.50),
    ("Cc1cc(-c2c(-c3ccccc3)nc(N)n3c(=O)n(Cc4ccccc4CN(C)C)nc23)cc(C)n1", -0.90),
    ("Cc1cc(-c2c(-c3ccccc3)nc(N)n3c(=O)n(CCN4CCOCC4)nc23)cc(C)n1", 1.50),
    ("Cc1cc(-c2c(-c3ccc(F)cc3)nc(N)n3c(=O)n(CCC(F)(F)F)nc23)cc(CO)n1", 0.20),
    ("Cc1cc(N2CCC(NCCn3nc4c(-c5cc(C)nc(C)c5)c(-c5ccccc5)nc(N)n4c3=O)CC2)[nH]n1", 2.50),
    ("Cc1cc(-c2c(-c3ccccc3)nc(N)n3c(=O)n(CCN4CCC5CC54)nc23)cc(C)n1 (stereo not shown)", 0.80),
    ("COc1cc(-c2c(-c3ccccc3)nc(N)n3c(=O)n(Cc4ccc(F)cn4)nc23)cc(CO)n1", 0.40),
]
